MEASURED ON: His-BIR2-3 (125-356, C202A/C213G, XIAP) (Homo sapiens, UniProt P98170, C202A/C213G)
Construct: additions of His-BIR2-3 (125-356, C202A/C213G, XIAP), fluorescein labeled dimeric SMAC peptide
Sequence (P98170 125-356 C202A/C213G): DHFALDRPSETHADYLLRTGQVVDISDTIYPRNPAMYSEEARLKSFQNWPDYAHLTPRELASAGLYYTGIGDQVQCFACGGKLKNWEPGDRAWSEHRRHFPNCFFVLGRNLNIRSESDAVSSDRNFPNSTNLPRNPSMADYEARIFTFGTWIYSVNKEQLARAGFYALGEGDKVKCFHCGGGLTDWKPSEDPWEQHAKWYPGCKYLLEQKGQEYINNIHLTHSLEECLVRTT
TEST SUMMARY: XIAP-BIR2-3 Dimeric SMAC Peptide Homogeneous Time Resolved Fluorescence (HTRF) Assay
CONDITION DETAILS: fluorescein labeled dimeric SMAC peptide

| MOLECULE | UNIT NAME | IC50 |
| --- | --- | --- |
| CN[C@@H](C)C(=O)N[C@@H](CC(N)=O)C(=O)N1C[C@@H]2C[C@H]1C(=O)N[C@@H](Cc1ccc3ccccc3c1)C(=O)N[C@H](C(=O)O)Cc1ccc(cc1)C(=O)N[C@H]1C[C@@H](C(=O)N[C@@H](Cc3ccc4ccccc4c3)C(=O)N[C@H](C(=O)O)Cc3ccc(cc3)OC/C=C/CO2)N(C(=O)[C@@H](NC(=O)[C@H](C)NC)C(C)(C)C)C1 [Example 72] | nM | 9.3 |
| CN[C@@H](C)C(=O)N[C@H](C(=O)N1C[C@@H]2C[C@H]1C(=O)NC(Cc1ccc3ccccc3c1)C(=O)N[C@H](c1n[nH]c(=O)n1Cc1ccc(OC)cc1)Cc1ccc(cc1)OC/C=C/C[C@H]1C[C@@H](C(=O)N[C@@H](Cc3ccc4ccccc4c3)C(=O)N[C@H](C(=O)O)Cc3ccc(cc3)OCc3cn2nn3)N(C(=O)[C@@H](NC(=O)[C@H](C)NC)C(C)(C)C)C1)C(C)(C)C (some centres unmarked) [Example 95] | nM | 1.8 |
| CN[C@@H](C)C(=O)N[C@H](C(=O)N1C[C@@H]2C[C@H]1C(=O)N[C@@H](Cc1ccc3ccccc3c1)C(=O)N[C@H](C(=O)O)Cc1ccc(cc1)OCc1cn(nn1)[C@H]1C[C@@H](C(=O)N[C@@H](Cc3ccc4ccccc4c3)C(=O)N[C@H](C(=O)NS(=O)(=O)C3CC3)Cc3ccc(cc3)OCCCCO2)N(C(=O)[C@@H](NC(=O)[C@H](C)NC)C(C)(C)C)C1)C(C)(C)C [Example 122] | nM | 11.3 |
| CN[C@@H](C)C(=O)N[C@H](C(=O)N1C[C@@H]2C[C@H]1C(=O)N[C@@H](Cc1ccc3ccccc3c1)C(=O)N[C@H](C(=O)O)Cc1ccc(cc1)OC/C=C/CO[C@H]1C[C@@H](C(=O)N[C@@H](Cc3ccc(-c4cccc(F)c4)cc3)C(=O)N[C@H](C(=O)NS(=O)(=O)C3CC3)Cc3ccc(cc3)OCc3cn2nn3)N(C(=O)[C@@H](NC(=O)[C@H](C)NC)C(C)(C)C)C1)C(C)(C)C [Example 115] | nM | 11.1 |
| CN[C@@H](C)C(=O)N[C@H](C(=O)N1C[C@H]2C/C=C/COc3ccc(cc3)C[C@@H](C(=O)NS(=O)(=O)C3CCCCC3)NC(=O)[C@H](Cc3ccc4ccccc4c3)NC(=O)[C@@H]3C[C@@H](CN3C(=O)[C@@H](NC(=O)[C@H](C)NC)C(C)(C)C)n3cc(nn3)COc3ccc(cc3)C[C@@H](C(=O)O)NC(=O)[C@H](Cc3ccc4ccccc4c3)NC(=O)[C@@H]1C2)C(C)(C)C [Example 24] | nM | 0.2 |
| CN[C@@H](C)C(=O)N[C@H](C(=O)N1C[C@@H]2C[C@H]1C(=O)N[C@@H](Cc1ccc3ccccc3c1)C(=O)N[C@H](C(=O)O)Cc1ccc(cc1)OC/C=C/CO[C@H]1C[C@@H](C(=O)N[C@@H](Cc3ccc4ccccc4c3)C(=O)N[C@H](C(=O)O)Cc3ccc(cc3)C(=O)N2)N(C(=O)[C@@H](NC(=O)[C@H](C)N(C)C(C)=O)C(C)(C)C)C1)C(C)(C)C [Example 73] | nM | 440 |
| CN[C@@H](C)C(=O)N[C@H](C(=O)N[C@H]1C/C=C/COc2ccc(cc2)C[C@@H](C(=O)O)NC(=O)[C@H](Cc2ccc3ccccc3c2)NC(=O)[C@@H]2CN(CCN2C(=O)[C@@H](NC(=O)[C@H](C)NC)C(C)(C)C)C(=O)CNC(=O)CC[C@@H](C(=O)O)NC(=O)[C@H](Cc2ccc3ccccc3c2)NC1=O)C(C)(C)C [Example 78] | nM | 4.7 |
| CN[C@@H](C)C(=O)N[C@H](C(=O)N1C[C@@H]2C[C@H]1C(=O)N[C@@H](Cc1ccc3ccccc3c1)C(=O)N[C@H](C(=O)O)Cc1ccc(cc1)OCCCC[C@H]1C[C@@H](C(=O)N[C@@H](Cc3ccc4ccccc4c3)C(=O)N[C@H](C(=O)NS(=O)(=O)C3CC3)Cc3ccc(cc3)OCc3cn2nn3)N(C(=O)[C@@H](NC(=O)[C@H](C)NC)C(C)(C)C)C1)C(C)(C)C [Example 87] | nM | 1.3 |

###

MEASURED ON: His-BIR3 (241-356, XIAP) (Homo sapiens)
Construct: additions of His-BIR3 (241-356, XIAP), fluorescein labeled SMAC peptide
TEST SUMMARY: XIAP-BIR3/SMAC Homogeneous Time Resolved Fluorescence (HTRF) Assay
CONDITION DETAILS: fluorescein labeled SMAC peptide
pIC50: −log10 of the molar value.
Overview of recorded pIC50 for various compounds

| SUBSTANCE SMILES | pIC50 |
| --- | --- |
| CN[C@@H](C)C(=O)N[C@H](C(=O)N1C[C@@H]2C[C@H]1C(=O)N[C@@H](Cc1ccc3ccccc3c1)C(=O)N[C@H](C(=O)O)Cc1ccc(cc1)OC/C=C/CO[C@H]1C[C@@H](C(=O)N[C@@H](Cc3ccc4ccccc4c3)C(=O)N[C@H](C(=O)NS(=O)(=O)C3CC3)Cc3ccc(cc3)OCc3cn2nn3)N(C(=O)[C@H](NC(=O)[C@H](C)NC)[C@@H](C)O)C1)C(C)(C)C | 7.47 |
| CN[C@@H](C)C(=O)N[C@H](C(=O)N1C[C@@H]2C[C@H]1C(=O)N[C@@H](Cc1ccc3ccccc3c1)C(=O)N[C@H](C(=O)O)Cc1ccc(cc1)OC/C=C/CO[C@H]1C[C@@H](C(=O)N[C@@H](Cc3cccc(-c4ccc(CO)cc4)c3)C(=O)N[C@H](C(=O)NS(=O)(=O)C3CC3)Cc3ccc(cc3)OCc3cn2nn3)N(C(=O)[C@@H](NC(=O)[C@H](C)NC)C(C)(C)C)C1)C(C)(C)C | 8.03 |

###

MEASURED ON: His-BIR2-3 (125-356, C202A/C213G, XIAP) (Homo sapiens, UniProt P98170, C202A/C213G)
Construct: additions of His-BIR2-3 (125-356, C202A/C213G, XIAP), fluorescein labeled dimeric SMAC peptide
TEST SUMMARY: XIAP-BIR2-3 Dimeric SMAC Peptide Homogeneous Time Resolved Fluorescence (HTRF) Assay
CONDITION DETAILS: fluorescein labeled dimeric SMAC peptide
pIC50: −log10 of the molar value.
ENDPOINT NAME: pIC50

| MOLECULE | MEASURED VALUE |
| --- | --- |
| CN[C@@H](C)C(=O)N[C@H](C(=O)N1C[C@@H]2C[C@H]1C(=O)N[C@@H](Cc1ccc3ccccc3c1)C(=O)N[C@H](C(=O)O)Cc1ccc(cc1)OC/C=C/CO[C@H]1C[C@@H](C(=O)N[C@@H](Cc3ccc(-c4ccccc4)cc3)C(=O)N[C@H](C(=O)NS(=O)(=O)C3CC3)Cc3ccc(cc3)OCc3cn2nn3)N(C(=O)[C@@H](NC(=O)[C@H](C)NC)C(C)(C)C)C1)C(C)(C)C [Example 106] | 8.77 |
| CN[C@@H](C)C(=O)N[C@H](C(=O)N1C[C@@H]2C[C@H]1C(=O)N[C@@H](Cc1ccc3ccccc3c1)C(=O)N[C@H](C(=O)NS(=O)(=O)C1CC1)Cc1ccc(cc1)OCc1cn(nn1)[C@H]1C[C@@H](C(=O)N[C@@H](Cc3ccc4ccccc4c3)C(=O)N[C@H](C(=O)O)Cc3ccc(cc3)OC/C=C/CO2)N(C(=O)[C@@H](NC(=O)[C@H](C)NC)C(C)(C)C)C1)C1CCCCC1 [Example 108] | 8.11 |
| CC[C@H](NC(=O)[C@H](C)NC)C(=O)N1C[C@@H]2C[C@H]1C(=O)N[C@@H](Cc1ccc3ccccc3c1)C(=O)N[C@H](C(=O)NS(=O)(=O)C1CC1)Cc1ccc(cc1)OCc1cn(nn1)[C@H]1C[C@@H](C(=O)N[C@@H](Cc3ccc4ccccc4c3)C(=O)N[C@H](C(=O)O)Cc3ccc(cc3)OC/C=C/CO2)N(C(=O)[C@@H](NC(=O)[C@H](C)NC)C(C)(C)C)C1 [Example 107] | 8.77 |
| CC[C@H](NC(=O)[C@H](C)NC)C(=O)N1C[C@@H]2C[C@H]1C(=O)N[C@@H](Cc1ccc(-c3ccccc3)cc1)C(=O)N[C@H](C(=O)O)Cc1ccc(cc1)C(=O)N[C@H]1C[C@@H](C(=O)N[C@@H](Cc3ccc4ccccc4c3)C(=O)N[C@H](C(=O)O)Cc3ccc(cc3)OC/C=C/CO2)N(C(=O)[C@@H](NC(=O)[C@H](C)NC)C(C)(C)C)C1 [Example 49] | 8.32 |
| CN[C@@H](C)C(=O)N[C@H](C(=O)N1C[C@@H]2C[C@H]1C(=O)NC(Cc1ccc3ccccc3c1)C(=O)N[C@H](C(=O)NS(=O)(=O)CCCO)Cc1ccc(cc1)OC/C=C/C[C@H]1C[C@@H](C(=O)N[C@@H](Cc3ccc4ccccc4c3)C(=O)N[C@H](C(=O)O)Cc3ccc(cc3)OCc3cn2nn3)N(C(=O)[C@@H](NC(=O)[C@H](C)NC)C(C)(C)C)C1)C(C)(C)C (some centres unmarked) [Example 94] | 9.22 |

Measured values drawn from patent US20140135270A1 for this set.
